The following binders are shown together with reported Comparative binding affinity - Fold increase over parent values.
Biological target: T1, hu-MCSP(D3 domain)-avi-his (human, UniProt Q6UVK1 1582-2224, biotinylated where used for selection or for coupling to the SA chip)
T1 construct: also called human MCSP(D3 domain)-avi-his; human MCSP D3
T1 sequence: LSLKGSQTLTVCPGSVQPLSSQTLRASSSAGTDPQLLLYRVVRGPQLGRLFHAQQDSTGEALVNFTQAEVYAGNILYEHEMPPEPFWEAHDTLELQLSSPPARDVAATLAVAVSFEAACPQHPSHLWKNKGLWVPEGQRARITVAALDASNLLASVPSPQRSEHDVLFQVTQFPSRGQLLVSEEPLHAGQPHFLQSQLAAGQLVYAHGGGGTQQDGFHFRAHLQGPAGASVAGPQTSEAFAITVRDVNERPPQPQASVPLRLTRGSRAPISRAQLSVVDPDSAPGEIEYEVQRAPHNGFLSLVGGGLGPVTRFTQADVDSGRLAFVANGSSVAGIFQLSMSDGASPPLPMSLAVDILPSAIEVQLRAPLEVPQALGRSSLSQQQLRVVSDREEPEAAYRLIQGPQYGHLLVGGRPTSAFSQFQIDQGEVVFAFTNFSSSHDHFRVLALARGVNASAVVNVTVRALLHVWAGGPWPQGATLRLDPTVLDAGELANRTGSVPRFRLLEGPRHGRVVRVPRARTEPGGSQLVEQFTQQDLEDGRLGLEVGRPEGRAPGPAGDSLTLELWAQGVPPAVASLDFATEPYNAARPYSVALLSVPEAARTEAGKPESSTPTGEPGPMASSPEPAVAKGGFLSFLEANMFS
Assay: SPR (ProteOn XPR36), IgG KD against parental M4-3/ML2
Outcome Measure: Comparative binding affinity - Fold increase over parent (fold)

[
  {
    "Binder": "M4-3/ML2 (C5) (IgG) (antibody, V domains shown, Human IgG1 format) VH: QVQLQESGPGLVKPSQTLSLTCTVSGGSITSGYYWNWIRQHPGKGLEWIGYITYDGSNNYNPSLKSRVTISRDTSKNQFSLKLSSVTAADTAVYYCADFDYWGQGTLVTVSS VL: DIQMTQSPSSLSASVGDRVTITCRASRGIREYLNWYQQKPGKAPKLLIYYTGSLHSGVPSRFSGSGSGTDFTLTISSLQPEDFATYYCQQYSELPWTFGQGTKVEIK",
    "Endpoint Value": 5
  },
  {
    "Binder": "M4-3(C1)/ML2 (IgG) (antibody, V domains shown, Human IgG1 format) VH: QVQLQESGPGLVKPSQTLSLTCTVSGGSITSGYYWNWIRQHPGKGLEWIGYITFDGSNNYNPSLKSRVTISRDTSKNQFSLKLSSVTAADTAVYYCADFDYWGQGTLVTVSS VL: DIQMTQSPSSLSASVGDRVTITCRASQGIRNYLNWYQQKPGKAPKLLIYYTSSLHSGVPSRFSGSGSGTDFTLTISSLQPEDFATYYCQQYSKLPWTFGQGTKVEIK",
    "Endpoint Value": 2.2
  },
  {
    "Binder": "M4-3(C1)/ML2(G3) (IgG) (antibody, V domains shown, Human IgG1; also called MCSP M4-3(C1) ML2(G3)) VH: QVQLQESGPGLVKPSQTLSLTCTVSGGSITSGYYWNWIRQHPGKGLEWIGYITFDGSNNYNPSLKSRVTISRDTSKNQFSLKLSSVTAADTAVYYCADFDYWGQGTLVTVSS VL: DIQMTQSPSSLSASVGDRVTITCRASQGIRNYLNWYQQKPGKAPKLLIYYTSSLHSGVPSRFSGSGSGTDYTLTISSLQPEDFATYYCQQYSALPWTFGQGTKVEIKR",
    "Endpoint Value": 28.6
  },
  {
    "Binder": "M4-3(A7)/ML2(G3) (IgG) (antibody, V domains shown, Human IgG1 format) VH: QVQLQESGPGLVKPSQTLSLTCTVSGGSITDGYYWNWIRQHPGKGLEWIGYITFDGRNNYNPSLKSRVTISRDTSKNQFSLKLSSVTAADTAVYYCADFDYWGQGTLVTVSS VL: DIQMTQSPSSLSASVGDRVTITCRASQGIRNYLNWYQQKPGKAPKLLIYYTSSLHSGVPSRFSGSGSGTDYTLTISSLQPEDFATYYCQQYSALPWTFGQGTKVEIK",
    "Endpoint Value": 28.6
  },
  {
    "Binder": "M4-3(C1)/ML2(E10) (IgG) (antibody, V domains shown, Human IgG1 format) VH: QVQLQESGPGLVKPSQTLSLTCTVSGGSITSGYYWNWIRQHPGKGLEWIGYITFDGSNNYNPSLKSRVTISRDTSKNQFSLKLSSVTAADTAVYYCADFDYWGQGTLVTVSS VL: DIQMTQSPSSLSASVGDRVTITCRASYGIRGYLNWYQQKPGKAPKLLIYYTSSLHSGVPSRFSGSGSGTDFTLTISSLQPEDFATYHCQQYSKLPWTFGQGTKVEIK",
    "Endpoint Value": 4
  }
]
